Tested on: A498 renal
Test: NCI-60 one-dose screen, 48 h (100 = growth as untreated, 0 = no growth, -100 = all killed)
Settings: 10 µM unless noted
Protocol: Growth inhibition of the A498 human tumor cell line is measured as a screen for anti-cancer activity. Cells are grown in 96 well plates and exposed to the test compound for 48 hours. Compounds are tested at a single concentration, which is 10^-5 M for most compounds. The reported endpoint is percent growth (GI% or GIPRCNT), where numbers from 0 - 100% represent growth inhibition, and numbers from -100% - 0 represent cell death. For example, a value of 40 represents 60% growth inhibition. […]
The panel holds about 83,000 compounds, 20% with a hit somewhere; the sample as a whole holds those more often.
Use Condition met when the recorded growth is no lower than 60%; use Condition not met when it is lower.

{"columns": ["compound", "class-name"],
 "data": [
  ["CC(=O)Nc1ccc(C(=O)CCl)cc1", "Condition met"],
  ["Nc1nc(N)c2cc(Sc3cccc(C(F)(F)F)c3)ccc2n1", "Condition not met"],
  ["COc1ccc(/C=C2/C(=O)ON=C2C)cc1", "Condition met"],
  ["Cc1cccc2c(N)c3ccccc3nc12", "Condition not met"],
  ["S=C=Nc1ccc(N2CCOCC2)cc1", "Condition met"],
  ["NC(CS/C(Cl)=C/Cl)C(=O)O (configuration not stated)", "Condition not met"],
  ["Cc1ccc(NC2=CC(=O)C(=O)c3ccccc32)cc1", "Condition met"]
]}

###

Recorded growth for the following molecules
Test system: U251 CNS
Experiment: NCI-60 one-dose screen, 48 h (100 = growth as untreated, 0 = no growth, -100 = all killed)
Settings: 10 µM unless noted
Compounds without any hit were thinned out: in the full panel of roughly 83,000, 20% have a hit. *1 amine or outer side, *2 acyl side, *3 side chain or, on linkers, in order; H or OH if unused. Where a SMILES comes first, the peptide text is derived from it. [ ]: non-standard residue; d: D form. The star is where a group is joined. X5 = CCC(=O)CC1CC(C)CC(C(=O)[*:2])N1[*:1]; X4 = CCCCCCCCC(C)C(=O)*; Aib = CC(C)(N)C(=O)O; X6 = CC(CN(C)CCO)N*
endpoint-label: growth (%)

{"columns": ["molecule", "target-system", "endpoint-label", "unit-text", "experimental-result"],
 "data": [
  ["O=[N+]([O-])c1ccc(C2N(Cc3ccc(Cl)cc3)CCN2Cc2ccc(Cl)cc2)cc1", "U251 CNS", "growth", "%", 87.6],
  ["CC1(C)CCCC2=C1C(=O)N(SC(Cl)(Cl)Cl)C2=O", "U251 CNS", "growth", "%", 93.8],
  ["O=C(O)c1cccc2cccc(-c3c4ccc(=O)c(O)c-4oc4c(O)c(O)ccc34)c12", "U251 CNS", "growth", "%", 99.5],
  ["Cc1ccc(/C=C2\\CNC/C(=C\\c3ccc(C)cc3)C2=O)cc1", "U251 CNS", "growth", "%", -63.4],
  ["NNc1cccc([N+](=O)[O-])c1", "U251 CNS", "growth", "%", 89],
  ["CC/C(=C(/CC)c1ccc(O)cc1)c1ccc(O)cc1", "U251 CNS", "growth", "%", 42.5],
  ["CCCCCCCCCCCCCCCc1ccc(C(=O)C[n+]2ccccc2)cc1", "U251 CNS", "growth", "%", -42.2],
  ["CCCCCCCCCCCCCCCCCC[S+](C)CC (stereo not given)", "U251 CNS", "growth", "%", -57.5],
  ["CCCOS(=O)(=O)c1ccccc1", "U251 CNS", "growth", "%", 106],
  ["OC(Cc1cc(CC(O)(C(F)(F)F)C(F)(F)F)nc(CC(O)(C(F)(F)F)C(F)(F)F)c1)(C(F)(F)F)C(F)(F)F", "U251 CNS", "growth", "%", -60.2],
  ["CCN(CC)CCNc1ccc([N+](=O)[O-])c2sc3ccccc3c(=O)c12", "U251 CNS", "growth", "%", 22.8],
  ["CCOC(=O)NC(/C=C/c1ccccc1)NC(=O)OCC", "U251 CNS", "growth", "%", 94.5],
  ["S=c1[nH]c2cc(Cl)ccc2s1", "U251 CNS", "growth", "%", 101],
  ["CC(/C=N/NC(N)=S)Cc1ccc(C(C)C)cc1 (stereo not given)", "U251 CNS", "growth", "%", 88.7],
  ["CCCCCCCCC(C)C(=O)N1CCCC1C(=O)N1C(CC(=O)CC)CC(C)CC1C(=O)NC(C)C(=O)NC(C)(C)C(=O)NC(C)(C)C(=O)NC(C(=O)NC(C)C(=O)NC(C)(C)C(=O)NC(C)(C)C(=O)NC(C)CN(C)CCO)C(C)CC (stereo not given) (X4-P[X5]A[Aib][Aib]IA[Aib][Aib]-X6; configuration not given here)", "U251 CNS", "growth", "%", -67.3],
  ["COc1ccc2c(c1OC)OCC(CN(C)C)C2=O (stereo not given)", "U251 CNS", "growth", "%", 103],
  ["CCC1C[N+]2=C(c3cc(OC)c(OC)cc3CC2)c2c1cc1n2CCc2cc(OC)c(OC)cc2-1 (stereo not given)", "U251 CNS", "growth", "%", 22.7],
  ["Cc1ccccc1NC(=O)Cc1csc2[n+]1C(=O)/C(=C/c1ccc([N+](=O)[O-])cc1)S2", "U251 CNS", "growth", "%", 92.2],
  ["CC1C(c2ccccc2)OCCN1C(=S)Nc1ccc(S(=O)(=O)N2CCCCC2)cc1 (stereo not given)", "U251 CNS", "growth", "%", 93],
  ["N=C(N)Sc1cccc[n+]1[O-]", "U251 CNS", "growth", "%", 41.5]
]}
